Sequence of the target: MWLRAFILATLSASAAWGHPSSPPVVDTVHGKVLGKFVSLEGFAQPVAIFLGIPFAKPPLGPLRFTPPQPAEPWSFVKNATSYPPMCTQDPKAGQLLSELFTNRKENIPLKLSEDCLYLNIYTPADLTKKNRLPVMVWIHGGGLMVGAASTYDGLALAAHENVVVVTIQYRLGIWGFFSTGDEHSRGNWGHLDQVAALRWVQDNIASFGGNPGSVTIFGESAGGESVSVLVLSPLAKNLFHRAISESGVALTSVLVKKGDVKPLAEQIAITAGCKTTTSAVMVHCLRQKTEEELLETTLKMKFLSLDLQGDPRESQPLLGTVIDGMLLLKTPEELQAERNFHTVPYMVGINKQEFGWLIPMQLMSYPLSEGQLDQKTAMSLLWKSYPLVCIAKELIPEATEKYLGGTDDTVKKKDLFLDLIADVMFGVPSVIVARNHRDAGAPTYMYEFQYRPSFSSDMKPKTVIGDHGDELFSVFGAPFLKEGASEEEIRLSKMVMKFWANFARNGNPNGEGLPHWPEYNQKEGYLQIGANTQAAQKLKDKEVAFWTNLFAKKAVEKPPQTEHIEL
quantityName: log10 of Ki (log10 of the value in µM)
Remember, log10 of Ki, in µM.

Fill blank: measured log10 of Ki of the compound O=C1C(=O)N(CNc2ccc(Br)cc2)c2ccccc21 is ____. -0.24

For the compound O=C1C(=O)N(Cc2ccc(Cl)c(Cl)c2)c2ccccc21 , what log10 of Ki is on record? -1.51

# input compound: O=C1Nc2cc(Cl)c(Cl)cc2C1=O ; wanted: its log10 of Ki 1.32

log10 of Ki lookup needed for O=C1Nc2c(Cl)cccc2C1=O , thanks. 1.06

Could you share which log10 of Ki value was measured for Cc1ccc(NCN2C(=O)C(=O)c3ccccc32)cc1 ? 0.42

GET /values?readout=log10 of Ki&item= O=C1C(=O)N(CCBr)c2ccccc21 -0.54

====

Sequence of the target: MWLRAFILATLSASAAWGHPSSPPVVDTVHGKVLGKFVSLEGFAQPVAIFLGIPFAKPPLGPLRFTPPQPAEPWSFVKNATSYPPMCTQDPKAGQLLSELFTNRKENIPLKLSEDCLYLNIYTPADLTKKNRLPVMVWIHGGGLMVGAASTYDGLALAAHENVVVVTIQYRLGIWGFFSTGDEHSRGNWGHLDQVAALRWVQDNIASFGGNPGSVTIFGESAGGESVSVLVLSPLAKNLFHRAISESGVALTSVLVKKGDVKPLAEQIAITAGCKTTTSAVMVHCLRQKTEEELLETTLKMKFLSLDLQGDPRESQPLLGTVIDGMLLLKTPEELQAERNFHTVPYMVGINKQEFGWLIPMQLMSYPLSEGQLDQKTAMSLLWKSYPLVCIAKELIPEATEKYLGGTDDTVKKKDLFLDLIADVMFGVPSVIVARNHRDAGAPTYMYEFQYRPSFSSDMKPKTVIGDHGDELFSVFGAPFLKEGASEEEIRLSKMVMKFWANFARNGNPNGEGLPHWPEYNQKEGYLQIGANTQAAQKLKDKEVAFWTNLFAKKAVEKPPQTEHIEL
pKi: −log10 of the molar value.
Please go through the items and note down their pKi.

What measured pKi goes with O=C1C(=O)N(CNc2ccc3ccccc3c2)c2ccccc21 ? < 4.00

# query: pKi of entry CCc1ccc2c(c1)NC(=O)C2=O < 4.00

Endpoint output: pKi of O=C1Nc2ccc([N+](=O)[O-])cc2C1=O . Value? < 4.00

GET /values?readout=pKi&item= NC(=O)CN1C(=O)C(=O)c2ccccc21 < 4.00

Need pKi, item O=C1C(=O)N(CCI)c2ccccc21 6.89

What value of measured pKi is listed for CCc1cccc2c1C(=O)C(=O)N2 ? < 4.00

For C=C(C)CN1C(=O)C(=O)c2cc(Br)ccc21 , what is its reported pKi? 7.18

====

Let's go through some pKi measurements on Cholinesterase (Homo sapiens) together.
Sequence (P06276 whole entry): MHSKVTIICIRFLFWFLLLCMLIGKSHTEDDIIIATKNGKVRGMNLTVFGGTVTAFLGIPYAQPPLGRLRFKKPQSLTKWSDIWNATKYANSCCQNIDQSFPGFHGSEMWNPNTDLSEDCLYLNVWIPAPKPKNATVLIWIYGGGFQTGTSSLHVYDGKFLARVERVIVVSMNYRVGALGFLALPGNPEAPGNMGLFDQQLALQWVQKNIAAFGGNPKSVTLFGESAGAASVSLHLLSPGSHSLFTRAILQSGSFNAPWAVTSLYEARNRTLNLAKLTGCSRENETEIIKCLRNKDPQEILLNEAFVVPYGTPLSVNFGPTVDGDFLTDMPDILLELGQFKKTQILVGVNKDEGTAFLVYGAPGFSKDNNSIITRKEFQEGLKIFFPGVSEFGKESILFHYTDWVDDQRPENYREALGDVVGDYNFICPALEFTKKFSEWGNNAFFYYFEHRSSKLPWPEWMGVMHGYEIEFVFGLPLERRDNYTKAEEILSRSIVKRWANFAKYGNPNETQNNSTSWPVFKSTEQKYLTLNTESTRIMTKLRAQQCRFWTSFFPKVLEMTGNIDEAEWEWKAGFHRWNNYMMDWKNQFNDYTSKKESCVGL
Lab note: report pKi as minus log10 of the concentration in molar units, number only.

Give its pKi value. Item: O=C1Nc2c(Cl)cccc2C1=O 4.51

Please report the recorded pKi for CCc1ccc(NCN2C(=O)C(=O)c3ccccc32)cc1 . 4.91

Give its pKi value. Item: CC(C)(C)c1ccc(NCN2C(=O)C(=O)c3ccccc32)cc1 4.72

Return reported pKi; argument: O=C1C(=O)N(CCBr)c2ccccc21 4.55

Entry under review: O=C1C(=O)N(Cc2ccc(Cl)c(Cl)c2)c2ccccc21 . Reported pKi? 4.90

Fill in the blank: the reported pKi of O=C1C(=O)N(c2ccccc2)c2ccccc21 [PHENYL ISATIN] is ____. 4.16

// pKi lookup, key: Cc1cccc(NC(=O)CN2C(=O)C(=O)c3ccccc32)c1 4.68

Fill blank: measured pKi of the compound Cc1ccc(NCN2C(=O)C(=O)c3ccccc32)cc1 is ____. 4.74

Suppose we examine the compound O=C1C(=O)N(CN2CCSCC2)c2ccccc21 ; what pKi value has been reported? 4.00

====

# testDetails: Inhibition of rabbit liver carboxylesterase expressed in sf21 cells
# Assay type: cell-based, Oryctolagus cuniculus
Would you kindly list pKi for each of these compounds?
Keep it numeric: pKi is minus log10 of the concentration in mol/L.

Need pKi, item Cc1c(Cl)ccc2c1NC(=O)C2=O 4.92

What measured pKi goes with O=C1Nc2cccc(Cl)c2C1=O ? 5.48

Name the reported pKi value associated with the compound O=C1Nc2cc(Cl)ccc2C1=O 4.84

Which pKi value is on record for CC(C)(C)c1ccc(NCN2C(=O)C(=O)c3ccccc32)cc1 ? 4.78

Fill in: pKi of O=C1C(=O)N(CCI)c2ccccc21 is ___ 5.67

====

# studySystem: UniProt P23141
# Sequence (P23141 whole entry): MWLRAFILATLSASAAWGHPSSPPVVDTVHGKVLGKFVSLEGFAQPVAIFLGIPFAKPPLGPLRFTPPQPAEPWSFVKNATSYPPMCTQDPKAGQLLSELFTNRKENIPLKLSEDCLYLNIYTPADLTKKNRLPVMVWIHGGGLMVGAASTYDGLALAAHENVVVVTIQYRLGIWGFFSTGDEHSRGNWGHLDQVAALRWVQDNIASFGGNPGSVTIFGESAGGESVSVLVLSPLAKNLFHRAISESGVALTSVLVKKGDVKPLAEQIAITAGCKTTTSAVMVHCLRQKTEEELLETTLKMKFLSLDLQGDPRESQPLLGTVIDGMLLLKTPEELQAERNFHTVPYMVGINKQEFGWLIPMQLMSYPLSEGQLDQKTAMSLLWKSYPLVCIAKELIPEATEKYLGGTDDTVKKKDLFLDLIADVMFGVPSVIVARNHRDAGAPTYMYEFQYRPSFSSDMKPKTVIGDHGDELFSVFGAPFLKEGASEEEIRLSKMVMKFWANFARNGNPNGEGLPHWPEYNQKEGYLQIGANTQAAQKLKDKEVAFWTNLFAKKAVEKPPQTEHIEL
Exercise: for every item that follows, state its recorded Ki.

What does the record list as Ki for O=C1C(=O)N(CN2CCSCC2)c2ccccc21 ? > 100 µM

Fill in: Ki of O=C1C(=O)N(CN2CCOCC2)c2ccccc21 is ___ > 100 µM

Look up Ki for this molecule: Cc1cccc2c1NC(=O)C2=O > 100 µM

Fill blank: measured Ki of the molecule COc1cccc2c1NC(=O)C2=O is ____. > 100 µM

# input molecule: O=C1Nc2ccccc2C1=O [ISATIN] ; wanted: its Ki > 100 µM

Item O=C1Nc2c(F)cccc2C1=O has what recorded Ki? > 100 µM

Any idea what its Ki is? The molecule is O=C1C(=O)N(c2ccccc2)c2ccccc21 [PHENYL ISATIN] 0.023 µM

====

Assignment: determine reported Ki for the given compounds.
# testDetails: Inhibition of rabbit liver carboxylesterase expressed in sf21 cells
# Assay type: cell-based, Oryctolagus cuniculus
Respond with the bare value in µM.

Requested read-out: Ki. Entry: O=C1Nc2ccc(OC(F)(F)F)cc2C1=O 0.36

Please look up its Ki: O=C1Nc2c(Cl)cc(Cl)cc2C1=O 0.76

Bench note: what Ki did O=C1C(=O)N(Cc2ccccc2)c2ccccc21 show? 19

Need Ki of O=C1Nc2ccc(Br)cc2C1=O , thanks. 1.32

Tell me the measured Ki of Cc1cccc(NC(=O)CN2C(=O)C(=O)c3ccccc32)c1 , please. 4.9

Give its Ki value. Item: COc1cccc2c1NC(=O)C2=O 16.1

# input compound: O=C1Nc2c(Cl)cccc2C1=O ; wanted: its Ki 4.51

# lookup: Ki of O=C1Nc2c(Cl)ccc(Cl)c2C1=O 0.41

GET /values?readout=Ki&item= O=C1Nc2ccc(I)cc2C1=O 1.16

Quick check: Ki of Cc1cc(Cl)cc2c1NC(=O)C2=O ? 14.1

Dear colleague, I am looking for the recorded Ki of the following compound: Cc1cc2c(cc1Br)NC(=O)C2=O 0.42

Data request, read-out Ki, for O=C1Nc2c(cccc2C(F)(F)F)C1=O 2.15

Which value of Ki has been reported for COc1ccc2c(c1)C(=O)C(=O)N2 in the records? 26.7

Returns the measured Ki for the input compound. Input: O=C1Nc2ccc([N+](=O)[O-])cc2C1=O 6.43

For Cc1ccc(NCN2C(=O)C(=O)c3ccccc32)cc1 , what is its reported Ki? 7.4

What measured Ki goes with O=C1C(=O)N(CNc2ccccc2Br)c2ccccc21 ? 1.15

Recorded Ki for C=C(C)CN1C(=O)C(=O)c2cc(Br)ccc21 , please? 0.13
